- assayed-target: human RORγt ligand binding domain (RORγt LBD) (Homo sapiens (Human), UniProt P51449)
- Sequence (P51449 other isoform, or with tags, fused parts or gaps): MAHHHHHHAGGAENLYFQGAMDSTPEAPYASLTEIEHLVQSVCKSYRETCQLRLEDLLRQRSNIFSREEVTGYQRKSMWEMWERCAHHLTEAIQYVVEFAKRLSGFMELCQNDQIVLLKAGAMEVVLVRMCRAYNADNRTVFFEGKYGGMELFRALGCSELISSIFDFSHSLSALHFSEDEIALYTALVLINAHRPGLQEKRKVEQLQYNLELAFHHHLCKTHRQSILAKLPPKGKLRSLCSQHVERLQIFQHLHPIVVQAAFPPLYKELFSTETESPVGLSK
- test-name: RORγt ThermoFluor® assay (thermal shift binding)
- condition-parameters: read-out: ThermoFluor® Assay, Kd
experimental-endpoint: pKd
As a rule, pKd stands for the negative log10 of the concentration, concentration in M.

Past entries and their recorded results:
CC(C)Nc1cc(C(F)(F)F)c(-c2sc(C(=O)NCC(C)(C)O)nc2C(=O)N2CCC(F)CC2)cn1; 7.20
CC[C@H](Nc1cc(C(F)F)c(-c2sc(C(=O)N[C@@H]3CCC[C@H]3O)nc2C(=O)N2C3CCC2CC3)cn1)C(F)(F)F; 9.02
C[C@H]1CCCN1C(=O)c1nc(C(=O)N[C@H]2C[C@H](O)C2)sc1-c1cnc(N[C@H](C2CC2)C(F)(F)F)cc1C(F)F; 8.42
CC[C@H](Nc1cc(C(F)F)c(-c2sc(C(=O)NCC(C)(C)O)nc2C(=O)N2CC(F)(F)C[C@@H]2C)cn1)C(F)(F)F; 8.85
C[C@H]1CCCCN1C(=O)c1nc(C(=O)NCC(C)(C)O)sc1-c1cnc(NC(C)(C)C)cc1C(F)(F)F; 9.72

Let's switch to this compound now.
q: Reported pKd for C[C@H](Nc1cc(C(F)F)c(-c2sc(C(=O)N[C@@H]3CCC[C@H]3O)nc2C(=O)N2CCC[C@@H]2C)cn1)C(F)(F)F : what is it?
a: 8.72

* * *

- assayed-target: UniProtKB P51449
- test-name: RORγt (full-length human) reporter assay, Conditions B or C
- Type: cell-based
- condition-parameters: at 3 μM compound concentration; read-out: RORγt (FL) Reporter Assay B or C, % inhibition
experimental-endpoint: inhibition at 3 µM (%)
Give just the number in %; leave the unit off.

C[C@H](Nc1cc(C(F)F)c(-c2sc(C(=O)N[C@@H]3CC[C@@H](O)C3)nc2C(=O)N2CCC[C@@H]2C)cn1)C(F)(F)F; 99
C[C@H]1CCCN1C(=O)c1nc(C(=O)N(C)CC(C)(C)O)sc1-c1cnc(NC(C)(C)C)cc1C(F)(F)F; 111
C[C@H]1CCCN1C(=O)c1nc(C(=O)NCC(C)(C)O)sc1-c1cnc(N[C@@H]2CCCC2(F)F)cc1C(F)(F)F (single isomer, unassigned); 110
CC[C@H](Nc1cc(C(F)F)c(-c2sc(C(=O)NC3CN(S(C)(=O)=O)C3)nc2C(=O)N2CCC[C@@H]2C)cn1)C(F)(F)F; 108
C[C@H]1CCCN1C(=O)c1nc(C(=O)NC2(C)COC2)sc1-c1cnc(NC(C)(C)C)cc1C(F)(F)F; 108

q: Reported inhibition at 3 µM for C[C@H]1CCCN1C(=O)c1nc(C(=O)NCC(C)(C)O)sc1-c1cnc(NCC2(C)CC2)cc1C(F)(F)F : what is it?
a: 100

* * *

- assayed-target: full-length human RORγt (Homo sapiens (Human), UniProt P51449)
- Sequence (P51449 other isoform, or with tags, fused parts or gaps): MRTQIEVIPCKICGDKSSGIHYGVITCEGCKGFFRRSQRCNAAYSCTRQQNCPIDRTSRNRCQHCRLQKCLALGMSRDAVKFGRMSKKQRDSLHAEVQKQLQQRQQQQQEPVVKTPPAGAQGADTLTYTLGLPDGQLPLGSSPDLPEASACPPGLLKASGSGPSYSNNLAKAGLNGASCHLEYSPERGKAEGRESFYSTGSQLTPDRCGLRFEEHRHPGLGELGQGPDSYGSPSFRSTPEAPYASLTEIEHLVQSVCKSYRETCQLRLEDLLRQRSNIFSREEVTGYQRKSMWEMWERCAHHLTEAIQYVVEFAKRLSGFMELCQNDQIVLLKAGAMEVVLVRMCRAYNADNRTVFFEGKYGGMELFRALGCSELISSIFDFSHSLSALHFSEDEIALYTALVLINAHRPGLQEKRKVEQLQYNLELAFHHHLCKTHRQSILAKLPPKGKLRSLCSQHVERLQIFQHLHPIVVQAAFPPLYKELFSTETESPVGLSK
- test-name: RORγt (full-length human) reporter assay, Conditions B or C
- Format: cell-based
- condition-parameters: at 3 μM compound concentration; read-out: RORγt (FL) Reporter Assay B or C, % inhibition
experimental-endpoint: inhibition at 3 µM (%)
Give just the number in %; leave the unit off.

CC[C@H](Nc1cc(C(F)F)c(-c2sc(C(=O)N3CC4(COC4)C3)nc2C(=O)N2CCC[C@@H]2C)cn1)C(F)(F)F; 98
O=C(N[C@H]1C[C@H](O)C1)c1nc(C(=O)N2C3CCC2CC3)c(-c2cnc(N[C@@H](C3CC3)C(F)(F)F)cc2C(F)F)s1; 86
CCNC(=O)c1nc(C(=O)N2CCC[C@@H]2C)c(-c2cnc(NC(C)(C)C)cc2C(F)(F)F)s1; 95
C[C@H]1CCCN1C(=O)c1nc(C(=O)NCC(O)(C(F)(F)F)C(F)(F)F)sc1-c1cnc(NC(C)(C)C)cc1C(F)F; 112

Let's switch to this compound now.
q: Reported inhibition at 3 µM for CC[C@H](Nc1cc(C(F)F)c(-c2sc(C(=O)N[C@H]3CCC[C@@H]3O)nc2C(=O)N2CC(F)(F)C[C@@H]2C)cn1)C(F)(F)F : what is it?
a: 84
